Test system: Scedosporium aurantiacum CBS 136046;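 further: conidia screened in RPMI 1640 medium under 5% CO2, growth read by spectrophotometer, medium with 0.5% DMSO serving as the untreated reference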
assay_explanation: growth inhibition relative to DMSO control (OD600); higher = more antifungal activity, active = 80 or more
condition_set: 5 µM; 72 h; 37 °C
Respond with true for growth inhibition values of 9% and above, false for values below.

Answered cases to consult:
- compound: "COc1cc(C(C)(C)CCCC(C)C)cc(OC)c1OC"
  group: "true"
- compound: "C[C@@]1(O)[C@H](O)[C@@H](CO)O[C@H]1n1ccc2c(N)ncnc21"
  group: "false"
- compound: "CCN1CCN(Cc2nc3ccc([N+](=O)[O-])cc3c(=O)n2-c2ccccc2F)CC1"
  group: "false"
- compound: "Nc1c(C(=O)NCc2ccco2)c2nc3ccccc3nc2n1CCN1CCCCC1"
  group: "true"
- compound: "O=C(NC12CC3CC(CC(C3)C1)C2)c1cc2ccccc2[nH]1"
  group: "false"

Task: Given the entry COc1ccccc1CN[C@H]1C2CCN(CC2)[C@H]1C(c1ccccc1)c1ccccc1 , answer whether its growth inhibition meets or surpasses 9%.
Result: true

Task: Reported growth inhibition at or above 9%? C[N+]1(C)CCCC(OC(=O)C(O)(c2ccccc2)c2ccccc2)C1 (stereo not drawn)
Result: true

Taken from the supplement of paper PMC9897528.
